- targetOfAssay: T1, recombinant human soluble gpNMB (recombinant human gpNMB-FLAG-His) (human, UniProt Q14956 23-498)
- T1 sequence: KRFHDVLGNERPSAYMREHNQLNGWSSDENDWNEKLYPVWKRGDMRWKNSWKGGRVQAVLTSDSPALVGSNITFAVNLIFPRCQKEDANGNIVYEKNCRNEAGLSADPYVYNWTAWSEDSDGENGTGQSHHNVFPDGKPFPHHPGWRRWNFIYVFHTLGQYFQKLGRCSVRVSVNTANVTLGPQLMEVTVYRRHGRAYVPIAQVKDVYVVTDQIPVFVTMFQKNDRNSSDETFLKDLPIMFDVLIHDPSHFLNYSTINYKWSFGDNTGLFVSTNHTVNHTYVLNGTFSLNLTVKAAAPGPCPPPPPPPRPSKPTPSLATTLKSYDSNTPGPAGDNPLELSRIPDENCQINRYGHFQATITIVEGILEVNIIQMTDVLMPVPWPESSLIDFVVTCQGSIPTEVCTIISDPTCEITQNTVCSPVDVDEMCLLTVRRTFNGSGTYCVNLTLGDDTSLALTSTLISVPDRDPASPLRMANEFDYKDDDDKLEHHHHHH
- method: antigen ELISA
A collection of binders and their measured EC50
Quick reminder: number only, in nM, skip the unit.

{"columns": ["binder", "EC50 [nM]"],
 "data": [
  ["hGPN06-1_H1L1 VL P94A (antibody, V domains shown) VH: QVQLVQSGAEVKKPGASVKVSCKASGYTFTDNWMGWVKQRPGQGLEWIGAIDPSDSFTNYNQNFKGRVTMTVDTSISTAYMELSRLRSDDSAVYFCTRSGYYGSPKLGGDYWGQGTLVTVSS VL: EIVLTQSPSSLSASVGDRVTITCSASSSISYMHWYQQKSGTAPKLLIYSTSNLASGVPSRFSGSGSGTDFTFTISSLQPEDAATYYCHQWNSYACTFGGGTKLEIK", 26.4]
]}

Next item in the queue.
Any idea what EC50 was measured for hGPN06-1_H1L1 VL T50A (antibody, V domains shown) VH: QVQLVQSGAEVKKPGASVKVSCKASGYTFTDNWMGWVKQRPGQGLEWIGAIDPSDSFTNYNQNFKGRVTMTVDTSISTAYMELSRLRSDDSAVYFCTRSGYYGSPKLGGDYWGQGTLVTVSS VL: EIVLTQSPSSLSASVGDRVTITCSASSSISYMHWYQQKSGTAPKLLIYSASNLASGVPSRFSGSGSGTDFTFTISSLQPEDAATYYCHQWNSYPCTFGGGTKLEIK ? 3.19
